Data origin, for the record: patent US10428140B2

Provide the recorded hEphB1-SEAP-: absorbance at 450 nm, percentage with respect to hEphA4-SEAP-His as 100% for the entries that follow.
measurement-target: T1, human EphB1 (Homo sapiens, UniProt P54762)
T1 construct: a protein of the extracellular region of each human Eph receptor fused with the SEAP protein and the His tag; made in house; host or cells: Expi293F cells (culture supernatant)
T1 sequence (P54762 18-540 limits assumed): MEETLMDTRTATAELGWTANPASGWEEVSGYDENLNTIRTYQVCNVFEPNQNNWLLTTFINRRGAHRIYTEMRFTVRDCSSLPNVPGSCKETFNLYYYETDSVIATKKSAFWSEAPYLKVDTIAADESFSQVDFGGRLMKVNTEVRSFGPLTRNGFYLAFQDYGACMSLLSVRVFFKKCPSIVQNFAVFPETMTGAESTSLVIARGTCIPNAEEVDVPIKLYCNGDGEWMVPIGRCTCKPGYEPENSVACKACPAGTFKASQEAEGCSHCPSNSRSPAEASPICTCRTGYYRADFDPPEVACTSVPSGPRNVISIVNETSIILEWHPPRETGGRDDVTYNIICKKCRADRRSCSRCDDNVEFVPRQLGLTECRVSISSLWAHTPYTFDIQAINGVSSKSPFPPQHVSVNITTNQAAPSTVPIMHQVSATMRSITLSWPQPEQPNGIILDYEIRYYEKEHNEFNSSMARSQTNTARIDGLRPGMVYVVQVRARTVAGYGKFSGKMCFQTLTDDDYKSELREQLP
assay-remarks: Selectivity ELISA of humanized antibodies for human Eph receptor
Assay type: binding
experimental-setup: coated protein 1 nM
Give bare numbers, in %.

[[record]]
molecule = "96 (antibody, V domains shown, constant regions without entry; synthetic humanized antibody light chain variable region sequence; synthetic humanized antibody heavy chain variable region sequence) VL: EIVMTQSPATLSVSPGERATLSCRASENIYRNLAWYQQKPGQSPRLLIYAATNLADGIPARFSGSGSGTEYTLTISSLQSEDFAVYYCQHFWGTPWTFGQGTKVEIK VH: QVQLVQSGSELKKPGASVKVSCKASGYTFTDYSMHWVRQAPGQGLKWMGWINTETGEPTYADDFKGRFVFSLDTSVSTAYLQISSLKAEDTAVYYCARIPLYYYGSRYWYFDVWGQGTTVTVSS"
unit_of_measure = "%"
reported_result = 5.6


--- query ---
Lookup: I am curious: what hEphB1-SEAP-: absorbance at 450 nm, percentage with respect to hEphA4-SEAP-His as 100% value has been reported for 159 (antibody, V domains shown, synthetic humanized antibody heavy chain variable region sequence; synthetic humanized antibody light chain variable region sequence) VH: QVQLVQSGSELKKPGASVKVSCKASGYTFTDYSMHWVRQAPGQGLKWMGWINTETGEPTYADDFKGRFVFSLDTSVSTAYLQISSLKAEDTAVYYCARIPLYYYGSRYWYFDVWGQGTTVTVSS VL: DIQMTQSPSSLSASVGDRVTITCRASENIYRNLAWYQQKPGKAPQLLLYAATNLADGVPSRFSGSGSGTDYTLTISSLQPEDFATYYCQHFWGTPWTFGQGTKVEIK ?
Found: 5.3
